# credit: ChEMBL document CHEMBL1268895

- Test system: SW-620
- measurement_protocol: Induction of apoptosis in TRAIL-resistant human SW620 cells assessed as pro-apoptotic cells at 50 uM after 24 hrs by annexin-V staining
- Assay type: functional
Activity strictly less than 20% = MET. Otherwise NOT MET.

Please review the entries below; each comes with its answer.
• CC1(C)O[C@@H]2C3=C(/C(CO)=C\C=C/[C@@H](CCc4ccccc4)[C@@H]3c3ccccc3)[C@@H]2O1 (relative stereo) = NOT MET
• CC(C)CC(O)(CC(C)C)[C@@H]1/C=C\C=C(\CO)C2=C([C@H]3OC(C)(C)O[C@@H]23)[C@H]1c1ccccc1 (relative stereo) = NOT MET

# check: Activity < 20% for CC1(C)O[C@@H]2C3=C(/C(CO)=C\C=C/[C@@H](C(C)(C)O)[C@@H]3c3ccccc3)[C@@H]2O1 (relative stereo) MET

In plain terms, does CC1(C)O[C@H]2C3=C4[C@@H](CCCC[C@@]42O1)[C@H](CCc1ccccc1)/C=C\C=C/3CO come in under 20% for Activity? NOT MET

Below 20% on Activity? Entry CC1(C)O[C@@H]2[C@]3(CCC[C@@H]4[C@H]5CO[C@H]6C=C(CO)[C@@]2(O)[C@]43[C@@H]56)O1 MET

Please indicate whether the reported Activity of CC1(C)O[C@H]2C3=C4[C@@H](CCC[C@@]42O1)[C@H](C(C)(C)O)/C=C\C=C/3CO is strictly below 20%. MET

# strict comparison: is reported Activity < 20%? input = CC1(C)O[C@@H]2C3=C(/C(CO)=C\C=C/[C@@H](C4(O)CCCC4)[C@@H]3c3ccccc3)[C@@H]2O1 MET

Does the reported Activity of CC(C)CC1(CC(C)C)O[C@H]2C=C(CO)[C@]3(O)[C@@H]4OC(C)(C)O[C@@]45CCC[C@@H]4[C@@H]1[C@@H]2[C@@]453 stay below 20%? MET

Hello, I'm reviewing records and need to know if Activity of CC1(C)O[C@@H]2C3=C(/C(CO)=C\C=C/[C@@H](C4(O)CCCCC4)[C@@H]3c3ccccc3)[C@@H]2O1 is below 20%. Could you check? MET

Please indicate whether the reported Activity of CC1(C)O[C@H]2C3=C4[C@@H](CCCC[C@@]42O1)[C@H](C(C)(C)O)/C=C\C=C/3CO is strictly below 20%. MET

Does CCCCCC[C@@H]1/C=C\C=C(\CO)C2=C([C@H]3OC(C)(C)O[C@@H]23)[C@H]1c1ccccc1 have Activity strictly under 20%? NOT MET

Strictly below 20%: is that where Activity of CC1(C)O[C@@H]2[C@]3(CCC[C@@H]4[C@@H]5[C@H]6[C@H](C=C(CO)[C@@]2(O)[C@]643)OC5(C)C)O1 sits? MET

Strictly below 20% in Activity? CCCCCC1(CCCCC)O[C@H]2C=C(CO)[C@]3(O)[C@@H]4OC(C)(C)O[C@@]45CCC[C@@H]4[C@@H]1[C@@H]2[C@@]453 MET

Lab note: confirm whether the reported Activity for this compound is below 20%, equality not counting. compound: CC1=C(O)C(=O)C=C2C1=CC=C1[C@@]2(C)CC[C@@]2(C)[C@@H]3C[C@](C)(C(=O)O)CC[C@]3(C)CC[C@]12C [CELASTROL] NOT MET

Please check: Activity for CCCCC1(CCCC)O[C@H]2C=C(CO)[C@]3(O)[C@@H]4OC(C)(C)O[C@@]45CCC[C@@H]4[C@@H]1[C@@H]2[C@@]453 , strictly under 20% or not? MET

Would you kindly verify if Activity of CC(C)CC(O)(CC(C)C)[C@@H]1/C=C\C=C(\CO)C2=C3[C@H]1CCCC[C@@]31OC(C)(C)O[C@@H]21 is strictly less than 20%? NOT MET

Would you kindly verify if Activity of CC1(C)O[C@H]2C3=C4[C@@H](CCCC[C@@]42O1)[C@H](C1(O)CCCCC1)/C=C\C=C/3CO is strictly less than 20%? MET

Find out if reported Activity for CC1(C)O[C@H]2C3=C4[C@@H](CCCC[C@@]42O1)[C@H](C1(O)CCCC1)/C=C\C=C/3CO is less than 20% NOT MET

Please state whether Activity is below 20% for CCCCCC[C@@H]1/C=C\C=C(\CO)C2=C3[C@H]1CCCC[C@@]31OC(C)(C)O[C@@H]21 NOT MET
